Quick list: % binding at 3000 ng/ml per entry.
- measurement target: T1, CLL-1 on U937 cells (human, UniProt Q5QGZ9 1-265)
- T1 construct: whole, on cells; also called CLEC12A; Clec12A
- T1 sequence: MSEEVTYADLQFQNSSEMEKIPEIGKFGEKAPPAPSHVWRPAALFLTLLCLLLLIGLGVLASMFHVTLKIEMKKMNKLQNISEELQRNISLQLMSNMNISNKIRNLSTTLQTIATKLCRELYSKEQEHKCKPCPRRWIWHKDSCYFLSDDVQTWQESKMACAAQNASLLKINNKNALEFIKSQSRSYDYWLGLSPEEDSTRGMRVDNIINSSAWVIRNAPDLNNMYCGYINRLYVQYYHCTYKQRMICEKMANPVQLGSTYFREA
- method description: flow cytometry on U937 cells, VHH in 3-fold dilutions, detected with a-His-PE; percent of cells positive

binder | units of measure | % binding at 3000 ng/ml
VHH clone 2H3 (VHH, Includes myc and His tags; also called 2H3 VHH-Myc-His; VHH 2H3) VHH: QVQLQESGGGLVQAGGSLRLSCVASGSIRSINVMGWYRQAPGKQRELVAACASDGNTYYADSVKGRFTISRDNAEKTVYLQMNNLKPDDTAVYYCDANSRGNYYSGQGTQVTVSS | % | 88.7
VHH clone 1H1 (VHH, includes myc and His tags; also called 2F4) VHH: QVQLQESGGGLVQPGGSLRLSCAASGFTFNSYAMTWVRQAPGKGLEWVSDINSGGGSTNYADSVKGRFTISRDNAKNTLYLQMNSLKPEDTAVYYCATELRGSDYYRGPIREYAYWGQGTLVTVSS | % | 71
VHH clone 1G6 (VHH, includes myc and His tags; also called 2G11; 2H2) VHH: QVQLQQSGGGLVQAGGSLRLSCAASGSIFAINEINLMGWYRQAPGKQRELVAACASDGNTYYADSVKGRFTISRDNAEKTVYLQMNNLKPDDTAVYYCDANSRGNYYSGQGTQVTVSS | % | 88.9
VHH clone 2F5 (VHH, Includes myc and His tags) VHH: QVQLQQSGGGLAQTGGSLILSCAASGSIFAINEINLMGWYRQAPGKQRELVAACASDGNTYYADSVKGRFTISRDNAEKTVYLQMNNLKPDDTAVYYCDANSRGNYYSGQGTQVTVSS | % | 86.4
